For each of the compounds below, state its melting point.

[in] Any idea what melting point was measured for CN(Cc1ccc(NC(=O)C2=Cc3cc(-c4ccsc4)ccc3OCC2)cc1)C1CCOCC1 ?
[out] 194 to 195 °C

[in] Can you share its melting point? I mean this compound: Cc1ccc(-c2ccc3c(c2)C=C(C(=O)Nc2ccc(CNC(CO)CO)cc2)CC3)cc1
[out] 189 to 193 °C

[in] Entry Cc1ccc(-c2ccc3c(c2)C=C(C(=O)Nc2ccc(CN4CCN(CCO)CC4)cc2)CC3)cc1 : reported melting point = ?
[out] 185 to 187 °C

[in] Look up melting point for this compound: CCOc1ccc(-c2ccc3c(c2)C=C(C(=O)Nc2ccc(CN(C)C4CCOCC4)cc2)CCO3)cc1
[out] 174 to 176 °C

[in] For COc1ccc(-c2ccc3c(c2)C=C(C(=O)Nc2ccc(CN(C)C4CCOCC4)cc2)CCS3)cc1 , what is its reported melting point?
[out] 162 to 164 °C

[in] // lookup melting point for COc1ccc(CCN(C)Cc2ccc(NC(=O)/C=C/c3cccc(-c4ccc(C)cc4)c3)cc2)cc1OC.Cl
[out] 214 to 217 °C

[in] Which melting point value is on record for CCOCCCN(C)Cc1ccc(NC(=O)C2=Cc3cc(-c4ccc(C)cc4)ccc3OCC2)cc1 ?
[out] 119 to 122 °C

[in] Need melting point, item Cc1ccc(-c2ccc3c(c2)C=C(C(=O)Nc2ccc(-c4cccc[n+]4[O-])cc2)CCO3)cc1
[out] 254 °C (dec.)

[in] # query: melting point of entry Cc1ccc(-c2ccc3c(c2)C=C(C(=O)Nc2ccc(C(O)c4ccccn4)cc2)CCO3)cc1 (stereo not drawn)
[out] 215 to 217 °C

[in] Name the reported melting point value associated with the compound Cc1ccc(-c2ccc3c(c2)C=C(C(=O)Nc2ccc(CN(C)C4CCOCC4)cc2)CCN3C=O)cc1
[out] 229 to 230.5 °C

[in] What does the data say about its melting point? Entry: O=C(Nc1cccc(CN2CCCCC2)c1)C1=Cc2cc(-c3ccccc3)ccc2CC1
[out] 152 to 153 °C

[in] # lookup: melting point of Cc1ccc(-c2ccc3c(c2)C=C(C(=O)Nc2ccc(CN4CCC(Cc5ccccc5)CC4)cc2)CC3)cc1
[out] 199 to 201 °C

[in] // query melting point value for entry Cc1ccc(-c2ccc3c(c2)C=C(C(=O)Nc2ccc(CNCc4ccccc4)cc2)CCO3)cc1
[out] 147 to 148 °C

[in] Could you share which melting point value was measured for CN1CCCN(C)P1(=O)Cc1ccc(NC(=O)C2=Cc3cc(-c4ccccc4)ccc3CC2)cc1 ?
[out] 249 to 250 °C

[in] So what does the record say about melting point for CN(Cc1ccc(NC(=O)C2=Cc3cc(-c4ccc(S(C)(=O)=O)cc4)ccc3OCC2)cc1)C1CCOCC1 ?
[out] 233 to 235 °C

[in] Any idea what its melting point is? The compound is CN1CCC(C(=O)Nc2ccc(CN(C)C3CCOCC3)cc2)=Cc2cc(-c3ccc(C(F)(F)F)cc3)ccc21
[out] 187.5 to 188.5 °C

[in] What measured melting point goes with Cc1ccc(-c2ccc3c(c2)C=C(C(=O)Nc2ccc(CP4(=O)OCCCO4)cc2)CCO3)cc1 ?
[out] 268 to 269 °C

[in] Entry Cc1ccc(-c2cccc(/C=C/C(=O)Nc3ccc(CN4CCCC(CO)C4)cc3)c2)cc1 (stereo not drawn) has what melting point?
[out] 153 to 154 °C
